Tested on: Escherichia coli TOP10;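 further: peptides expressed intracellularly from a pBAD plasmid library in pooled LB shake-flask culture, induced with 0.3% L-arabinose, DNA abundance read by NGS, three biological replicates, DESeq2 with apeglm shrinkage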
method notes: shrunken log2 fold change of peptide-encoding DNA abundance (4.5 h post-induction vs induction); higher = less antimicrobial activity (less host growth inhibition)
measurement setup: time post-induction: 4.5 h; library: site-saturation at positions 5, 18, 19, 20
Think of -0.04 as a floor: if shrunken log2 fold change stands on it or above, it is Fulfilled; beneath it, Not fulfilled.

RRIRIRPPRLPRPRPRPWDGPRP    Not fulfilled

query: Please check the record RRIRYRPPRLPRPRPRPPRMPRP and state if its shrunken log2 fold change is at or above -0.04.
result: Not fulfilled

query: Please check the record RRIRFRPPRLPRPRPRPWWYPRP and state if its shrunken log2 fold change is at or above -0.04.
result: Not fulfilled

query: Please check the record RRIRCRPPRLPRPRPRPGGKPRP and state if its shrunken log2 fold change is at or above -0.04.
result: Fulfilled

query: Please check the record RRIRWRPPRLPRPRPRPKMRPRP and state if its shrunken log2 fold change is at or above -0.04.
result: Fulfilled

query: Please check the record RRIRGRPPRLPRPRPRPFRQPRP and state if its shrunken log2 fold change is at or above -0.04.
result: Fulfilled

Taken from the supplement of paper PMC9112550.
